For each of the compounds below, state its Liver Microsome Stability (Multiple Species): Human - % Remaining after 30 min w/NADPH.
Experiment: Liver Microsome Stability Assay (human)
Details: human liver microsomes, with NADPH, 1.0 uM compound
Mention the unit after the number when you answer.

Here's what some known entries look like.
• O=C(Nc1nc([C@H]2CCCN2c2cnccn2)cs1)c1cccn1Cc1ccncc1 = 0.27%
• O=C(Nc1nc(/C=C/c2ccc3c(n2)CCCC3)cs1)c1cccn1Cc1ccnc(F)c1 = 0.33%
• O=C(Nc1nc([C@H]2CCCN2c2ccc(OC3CCN(C(=O)C(F)F)CC3)cc2)cs1)c1cccn1Cc1ccnc(F)c1 = 43%
• O=C(Nc1nc([C@H]2CCCN2c2ccc(OCCO)cc2)cs1)c1cccn1Cc1ccnc(F)c1 = 19.3%
• Cc1cccc(Cn2cccc2C(=O)Nc2nc([C@H]3CCCN3c3ccccc3)cs2)c1 = 62.8%

Please supply Liver Microsome Stability (Multiple Species): Human - % Remaining after 30 min w/NADPH for each of the following items, keeping them in order.
1. O=C(Nc1nc(/C=C/c2ccncn2)cs1)c1cccn1Cc1ccncc1
2. O=C(Nc1nc([C@H]2CCCN2c2ccc(OC3CN(C(=O)C4CC4)C3)cc2)cs1)c1cccn1Cc1ccnc(F)c1
3. CC(C)c1cccc2nc(/C=C/c3csc(NC(=O)c4cccn4Cc4ccncc4)n3)cn12
4. O=C(Nc1nc(CCc2ccc(OC(F)(F)F)cn2)cs1)c1cccn1Cc1ccncc1

1. 0.24%
2. 13.8%
3. 0.76%
4. 0.1%

====

Tested on: IL-2-FL/Gaussia Luciferase
Assay: Dox Induced IL2-FL-Gluc Assay
Assay type: cell-based
Details: ratio of IL2FLGluc IC50 to PD1ssGluc IC50
Measurement kind: 24 hr Dox Inducible IL2FLGluc 293FRT/TO: IL2/PD1
Numbers only.

Here's what some known entries look like.
* O=C(Nc1nc([C@H]2CCCN2c2ccc(OC3=CCNCC3)cc2)cs1)c1cccn1Cc1ccnc(F)c1 | 4.9
* CN1CCC(Oc2ccc(N3CCC[C@@H]3c3csc(NC(=O)c4cccn4Cc4ccncc4)n3)cc2)CC1 | 2.7
* CCc1cccc2nc(/C=C/c3csc(NC(=O)c4cccn4Cc4ccncc4)n3)cn12 | 10
* O=C(Nc1nc(/C=C/c2cocn2)cs1)c1cccn1Cc1ccncc1 | 160
* Cc1cc(Cn2cccc2C(=O)Nc2nc([C@H]3CCCN3c3ccccc3)cs2)ccn1 | 2.7

Please supply 24 hr Dox Inducible IL2FLGluc 293FRT/TO: IL2/PD1 for each of the following items, keeping them in order.
1. O=C(Nc1nc(/C=C/c2cn(C3CCOCC3)cn2)cs1)c1cccn1Cc1ccnc(F)c1
2. CN(C)C(=O)c1ccc(N2CCC[C@@H]2c2csc(NC(=O)c3cccn3Cc3ccncc3)n2)cc1
3. CC(=O)Nc1ccc(N2CCC[C@@H]2c2csc(NC(=O)c3cccn3Cc3ccncc3)n2)cc1

170
2.3
1.4

Please supply 24 hr Dox Inducible IL2FLGluc 293FRT/TO: IL2/PD1 for each of the following items, keeping them in order.
1. CC(C)n1ccc(/C=C/c2csc(NC(=O)c3cccn3Cc3ccnc(F)c3)n2)n1
2. O=C(Nc1nc([C@H]2CCCN2c2ccccc2)cs1)c1cccn1Cc1cc(F)nc(F)c1

[13, 2.9]

====

For each of the compounds below, state its IC50.
System: TNFα-FL/Gaussia Luciferase
Experiment: Dox Induced TNFα-FL-Gluc Assay
Type: cell-based
Details: 24 hr Dox induction; 293FRT/TO cells; read-out: 24 hr Dox Inducible TNFaFLGluc 293FRT/TO: Mean IC50

Here's what some known entries look like.
- CC(C)n1ccc(/C=C/c2csc(NC(=O)c3cccn3Cc3ccncc3)n2)n1: 10300 nM
- CC(C)(C)c1nc(/C=C/c2csc(NC(=O)c3cccn3Cc3ccncc3)n2)co1: 3750 nM
- CC(=O)N1CCC(Oc2c(F)cc(N3CCC[C@@H]3c3csc(NC(=O)c4cccn4Cc4ccnc(F)c4)n3)cc2F)CC1: 120 nM
- [2H]c1cc([2H])cc(N2CCC[C@@H]2c2csc(NC(=O)c3cccn3Cc3ccnc(F)c3)n2)c1: 133 nM

Please supply IC50 for each of the following items, keeping them in order.
1. CN(C)CCOc1ccc(N2CCC[C@@H]2c2csc(NC(=O)c3cccn3Cc3ccnc(F)c3)n2)cc1
2. CC(=O)N1CC(CCc2ccc(N3CCC[C@@H]3c3csc(NC(=O)c4cccn4Cc4ccnc(F)c4)n3)cc2)C1
3. O=C(Nc1nc([C@H]2CCCN2c2ccc(OCCO)cc2)cs1)c1cccn1Cc1ccnc(F)c1
4. O=C(Nc1nc([C@H]2CCCN2c2ccc(OC3CCN(C(=O)CO)CC3)cc2)cs1)c1cccn1Cc1ccnc(F)c1
5. CC(=O)N1CCCC(c2ccc(N3CCC[C@@H]3c3csc(NC(=O)c4cccn4Cc4ccncc4)n3)cc2)C1 (stereo partly drawn)
6. C[C@H](O)c1ccc(N2CCC[C@@H]2c2csc(NC(=O)c3cccn3Cc3ccnc(F)c3)n2)cc1
7. O=C(Nc1nc([C@H]2CCCN2c2ccccc2)cs1)c1cccn1Cc1cc(F)nc(F)c1

["4030 nM", "487 nM", "526 nM", "460 nM", "1060 nM", "40 nM", "861 nM"]

Please supply IC50 for each of the following items, keeping them in order.
1. CCc1cccc2nc(/C=C/c3csc(NC(=O)c4cccn4Cc4ccncc4)n3)cn12
2. CN(C)C(=O)N1CCC(Oc2ccc(N3CCC[C@@H]3c3csc(NC(=O)c4cccn4Cc4ccnc(F)c4)n3)cc2)CC1
3. CC(=O)Nc1ccc(N2CCC[C@@H]2c2csc(NC(=O)c3cccn3Cc3ccnc(F)c3)n2)cc1F
4. Cc1nc(/C=C/c2csc(NC(=O)c3cccn3Cc3ccncc3)n2)cn1C

1. > 25000 nM
2. 566 nM
3. 187 nM
4. > 25000 nM
